Lym listing for selected compounds.
species on record: Rattus norvegicus; test: Open TG-GATES - Regimen: Single; type: toxicity, organism-based, Sprague-Dawley; design: regimen Single, gender Male, age 6 weeks; conditions: in vivo, po, 300 mg/kg, 24 h, tissue Blood, route gavage, dose level Middle
parameter: Lym

# smiles representation, result
measured = [
    ("CNC(=C[N+](=O)[O-])NCCSCc1ccc(CN(C)C)o1", "80.6%"),
    ("COC(=O)C1=C(C)NC(C)=C(C(=O)OC)C1c1ccccc1[N+](=O)[O-]", "67%"),
    ("CN/C(=N/CCSCc1nc[nH]c1C)NC#N", "82.2%"),
    ("O=C(OC[C@H]1O[C@@H](OC(=O)c2cc(O)c(O)c(OC(=O)c3cc(O)c(O)c(O)c3)c2)[C@H](OC(=O)c2cc(O)c(O)c(OC(=O)c3cc(O)c(O)c(O)c3)c2)[C@@H](OC(=O)c2cc(O)c(O)c(OC(=O)c3cc(O)c(O)c(O)c3)c2)[C@@H]1OC(=O)c1cc(O)c(O)c(OC(=O)c2cc(O)c(O)c(O)c2)c1)c1cc(O)c(O)c(OC(=O)c2cc(O)c(O)c(O)c2)c1", "75%"),
    ("Cc1nnc2n1-c1ccc(Cl)cc1C(c1ccccc1Cl)=NC2", "74.8%"),
]

* * *

RALB listing for selected molecules.
species on record: Rattus norvegicus; assay: Open TG-GATES - Regimen: Single; assay type: toxicity, organism-based, Sprague-Dawley; design: regimen Single, gender Male, age 6 weeks; details: in vivo, po, 300 mg/kg, 3 h, tissue Plasma, route gavage, dose level Middle

# smiles representation, RALB (g/dL)
records = [
    ("CNC(=C[N+](=O)[O-])NCCSCc1ccc(CN(C)C)o1", 3.4),
    ("COC(=O)C1=C(C)NC(C)=C(C(=O)OC)C1c1ccccc1[N+](=O)[O-]", 2.6),
    ("O=C(OC[C@H]1O[C@@H](OC(=O)c2cc(O)c(O)c(OC(=O)c3cc(O)c(O)c(O)c3)c2)[C@H](OC(=O)c2cc(O)c(O)c(OC(=O)c3cc(O)c(O)c(O)c3)c2)[C@@H](OC(=O)c2cc(O)c(O)c(OC(=O)c3cc(O)c(O)c(O)c3)c2)[C@@H]1OC(=O)c1cc(O)c(O)c(OC(=O)c2cc(O)c(O)c(O)c2)c1)c1cc(O)c(O)c(OC(=O)c2cc(O)c(O)c(O)c2)c1", 3.7),
    ("CN/C(=N/CCSCc1nc[nH]c1C)NC#N", 3.3),
    ("Cc1nnc2n1-c1ccc(Cl)cc1C(c1ccccc1Cl)=NC2", 2.5),
]

* * *

organism: Rattus norvegicus; assay: Open TG-GATES - Regimen: Single; format: toxicity, organism-based, Sprague-Dawley; design: regimen Single, gender Male, age 6 weeks; conditions: in vivo, po, 300 mg/kg, 9 h, tissue Kidney, route gavage, dose level Middle
parameter: KIDNEY_L (g)

# smiles representation, recorded number
rows = [
    ("CNC(=C[N+](=O)[O-])NCCSCc1ccc(CN(C)C)o1", 1),
    ("CN/C(=N/CCSCc1nc[nH]c1C)NC#N", 1),
    ("Cc1nnc2n1-c1ccc(Cl)cc1C(c1ccccc1Cl)=NC2", 0.9),
    ("O=C(OC[C@H]1O[C@@H](OC(=O)c2cc(O)c(O)c(OC(=O)c3cc(O)c(O)c(O)c3)c2)[C@H](OC(=O)c2cc(O)c(O)c(OC(=O)c3cc(O)c(O)c(O)c3)c2)[C@@H](OC(=O)c2cc(O)c(O)c(OC(=O)c3cc(O)c(O)c(O)c3)c2)[C@@H]1OC(=O)c1cc(O)c(O)c(OC(=O)c2cc(O)c(O)c(O)c2)c1)c1cc(O)c(O)c(OC(=O)c2cc(O)c(O)c(O)c2)c1", 0.8),
    ("COC(=O)C1=C(C)NC(C)=C(C(=O)OC)C1c1ccccc1[N+](=O)[O-]", 0.9),
]

* * *

organism: Rattus norvegicus; assay: Open TG-GATES - Regimen: Single; assay type: toxicity, organism-based, Sprague-Dawley; set-up: regimen Single, gender Male, age 6 weeks; settings: in vivo, po, 100 mg/kg, 6 h, tissue Plasma, route gavage, dose level Low
PL listing for selected compounds.

# compound, unit string, PL
measured = [
    ("CN/C(=N/CCSCc1nc[nH]c1C)NC#N [CIMETIDINE]", "mg/dL", 138),
    ("COC(=O)C1=C(C)NC(C)=C(C(=O)OC)C1c1ccccc1[N+](=O)[O-] [NIFEDIPINE]", "mg/dL", 141.2),
    ("Cc1nnc2n1-c1ccc(Cl)cc1C(c1ccccc1Cl)=NC2 [TRIAZOLAM]", "mg/dL", 142.8),
    ("O=C(OC[C@H]1O[C@@H](OC(=O)c2cc(O)c(O)c(OC(=O)c3cc(O)c(O)c(O)c3)c2)[C@H](OC(=O)c2cc(O)c(O)c(OC(=O)c3cc(O)c(O)c(O)c3)c2)[C@@H](OC(=O)c2cc(O)c(O)c(OC(=O)c3cc(O)c(O)c(O)c3)c2)[C@@H]1OC(=O)c1cc(O)c(O)c(OC(=O)c2cc(O)c(O)c(O)c2)c1)c1cc(O)c(O)c(OC(=O)c2cc(O)c(O)c(O)c2)c1 [TANNIC ACID]", "mg/dL", 140.2),
    ("CNC(=C[N+](=O)[O-])NCCSCc1ccc(CN(C)C)o1 [RANITIDINE]", "mg/dL", 134.2),
]

* * *

organism: Rattus norvegicus; test: Open TG-GATES - Regimen: Single; format: toxicity, organism-based, Sprague-Dawley; design: regimen Single, gender Male, age 6 weeks; settings: in vivo, po, 300 mg/kg, 3 h, tissue Plasma, route gavage, dose level Middle
Use true when the recorded BUN is no lower than 10 mg/dL; use false when it is lower.

# molecule, class
data = [
    ("CN/C(=N/CCSCc1nc[nH]c1C)NC#N [CIMETIDINE]", "true"),
    ("COC(=O)C1=C(C)NC(C)=C(C(=O)OC)C1c1ccccc1[N+](=O)[O-] [NIFEDIPINE]", "true"),
    ("O=C(OC[C@H]1O[C@@H](OC(=O)c2cc(O)c(O)c(OC(=O)c3cc(O)c(O)c(O)c3)c2)[C@H](OC(=O)c2cc(O)c(O)c(OC(=O)c3cc(O)c(O)c(O)c3)c2)[C@@H](OC(=O)c2cc(O)c(O)c(OC(=O)c3cc(O)c(O)c(O)c3)c2)[C@@H]1OC(=O)c1cc(O)c(O)c(OC(=O)c2cc(O)c(O)c(O)c2)c1)c1cc(O)c(O)c(OC(=O)c2cc(O)c(O)c(O)c2)c1 [TANNIC ACID]", "true"),
    ("Cc1nnc2n1-c1ccc(Cl)cc1C(c1ccccc1Cl)=NC2 [TRIAZOLAM]", "false"),
]

* * *

species on record: Rattus norvegicus; test: Open TG-GATES - Regimen: Single; type: toxicity, organism-based, Sprague-Dawley; parameters: regimen Single, gender Male, age 6 weeks; settings: in vivo, po, 100 mg/kg, 3 h, tissue Blood, route gavage, dose level Low
Eos listing for selected molecules.

# smiles representation, Eos, %
rows = [
    ("O=C(OC[C@H]1O[C@@H](OC(=O)c2cc(O)c(O)c(OC(=O)c3cc(O)c(O)c(O)c3)c2)[C@H](OC(=O)c2cc(O)c(O)c(OC(=O)c3cc(O)c(O)c(O)c3)c2)[C@@H](OC(=O)c2cc(O)c(O)c(OC(=O)c3cc(O)c(O)c(O)c3)c2)[C@@H]1OC(=O)c1cc(O)c(O)c(OC(=O)c2cc(O)c(O)c(O)c2)c1)c1cc(O)c(O)c(OC(=O)c2cc(O)c(O)c(O)c2)c1", 1.2),
    ("CNC(=C[N+](=O)[O-])NCCSCc1ccc(CN(C)C)o1", 1),
    ("Cc1nnc2n1-c1ccc(Cl)cc1C(c1ccccc1Cl)=NC2", 1),
    ("CN/C(=N/CCSCc1nc[nH]c1C)NC#N", 1),
    ("COC(=O)C1=C(C)NC(C)=C(C(=O)OC)C1c1ccccc1[N+](=O)[O-]", 1),
]

* * *

organism: Rattus norvegicus; assay: Open TG-GATES - Regimen: Daily Repeat; format: toxicity, organism-based, Sprague-Dawley; set-up: regimen Daily Repeat, gender Male, age 6 weeks; details: in vivo, po, 0 mg/kg, […], tissue Blood, route gavage, dose level Control, time 7 day

# molecule, Plat / x10_4/uL
records = [
    ("CCOc1ccc(NC(C)=O)cc1 [PHENACETIN]", 118.8),
    ("COC(=O)C1=C(C)NC(C)=C(C(=O)OC)C1c1ccccc1[N+](=O)[O-] [NIFEDIPINE]", 133.6),
    ("CC(C)NNC(=O)c1ccncc1 [IPRONIAZID]", 110.1),
    ("Nc1c2c(nc3ccccc13)CCCC2 [TACRINE]", 122.6),
    ("CCCc1cc(=O)[nH]c(=S)[nH]1 [PROPYLTHIOURACIL]", 105.3),
    ("Brc1ccccc1 [BROMOBENZENE]", 115.5),
    ("Cc1nnc2n1-c1ccc(Cl)cc1C(c1ccccc1Cl)=NC2 [TRIAZOLAM]", 126.9),
    ("O=C(OC[C@H]1O[C@@H](OC(=O)c2cc(O)c(O)c(OC(=O)c3cc(O)c(O)c(O)c3)c2)[C@H](OC(=O)c2cc(O)c(O)c(OC(=O)c3cc(O)c(O)c(O)c3)c2)[C@@H](OC(=O)c2cc(O)c(O)c(OC(=O)c3cc(O)c(O)c(O)c3)c2)[C@@H]1OC(=O)c1cc(O)c(O)c(OC(=O)c2cc(O)c(O)c(O)c2)c1)c1cc(O)c(O)c(OC(=O)c2cc(O)c(O)c(O)c2)c1 [TANNIC ACID]", 101),
    ("CN(C)CCC(c1ccc(Cl)cc1)c1ccccn1 (stereo not drawn) [CHLORPHENIRAMINE]", 113.9),
    ("NC1=NC(=O)C(c2ccccc2)O1 (stereo not drawn) [PEMOLINE]", 126.1),
    ("CN1C(=O)CCS(=O)(=O)C1c1ccc(Cl)cc1 (stereo not drawn) [CHLORMEZANONE]", 113.1),
    ("CN/C(=N/CCSCc1nc[nH]c1C)NC#N [CIMETIDINE]", 129.9),
    ("CNC(=C[N+](=O)[O-])NCCSCc1ccc(CN(C)C)o1 [RANITIDINE]", 120.4),
]
